Reference source for all entries: PubChem BioAssay (Tox21)

Assay Notes: qHTS assay to identify small molecule antagonists of the progesterone receptor (PR) signaling pathway - cell viability counter screen (AID 1346798); further: nearly all actives have a fitted effect of over 50% in size; further: potency means the concentration at half of the fitted maximal effect
Experimental Setup: PR-UAS-bla HEK293T viability, CellTiter-Glo luminescence, 16 h; series mostly up to 92.4 µM
Text: National Center for Advancing Translational Sciences [NCATS] NIH Chemical Genomics Center [NCGC] U.S. Environmental Protection Agency [EPA] National Institutes of Environmental Health Sciences [NIEHS] National Toxicology Program [NTP] U.S. Food and Drug Administration [FDA] Progesterone receptor (PR), a nuclear hormone receptor, plays an important role in development, metabolic homeostasis and reproduction. It is activated by the steroid hormone progesterone. […]
Results filed as inconclusive are left out. Active and inactive are the calls of the source. The call rests on the fitted dose curve; in most records, active means well fitted cell-killing curve with a large enough effect in the repeat runs; inconclusive means weak or mixed curves, or effect the other way; inactive means no such curve, though single readings can be large or run the other way.
Reported Property: Potency

// below: answered compounds
{"Compound": "CC1(C)[C@H]2CC[C@]1(C)C(=O)C2", "Potency": "inactive"}
{"Compound": "C/C=C/C(=O)C1=C(C)C=CCC1(C)C", "Potency": "inactive"}
{"Compound": "CCCCCCCCSCc1cc(C)c(O)c(CSCCCCCCCC)c1", "Potency": "inactive"}
{"Compound": "c1ccc(-c2nc3ccccc3[nH]2)cc1", "Potency": "inactive"}
{"Compound": "CSc1ccc(O)cc1C", "Potency": "61.1 µM (active)"}

Which Potency value is on record for CC/C(=C(/c1ccc(O)cc1)c1ccc(OCCN(C)C)cc1)c1ccccc1 ?
32 µM (active)

Which Potency value is on record for Clc1cccc(Cl)n1 ?
inactive

Which Potency value is on record for CCCCCCCC1CCC(=O)O1 (stereo not drawn) ?
inactive

====

Assay Notes: qHTS assay for identifying genotoxic compounds that show differential cytotoxicity against isogenic chicken DT40 cell lines with known DNA damage response pathways - wild type cell line (AID 743012); further: nearly all actives have a fitted effect of over 60% in size
Experimental Setup: DT40 wild type chicken cells viability, CellTiter-Glo, 40 h; series mostly up to 68.4 µM
Inconclusive results are not listed. The source made the active and inactive calls. Calls come from the whole dose curve; as a rule, active = well fitted cell-killing curve with a large enough effect in the repeat runs; inconclusive = weak or mixed curves, or effect the other way; inactive = no such curve, though single readings can be large or run the other way.
Thanks in advance; please answer with one of these: active, inactive

Some solved entries appear below for comparison.
{"Compound": "CC(C)(Oc1ccc(C2CCCc3ccccc32)cc1)C(=O)O (stereo unspecified)", "Cat": "inactive"}
{"Compound": "COc1cc(NS(C)(=O)=O)ccc1Nc1c2ccccc2nc2ccccc12", "Cat": "active"}
{"Compound": "CCCCCCCCOC(=O)c1cc(O)c(O)c(O)c1", "Cat": "active"}
{"Compound": "CS(=O)(=O)c1ccc([C@@H](O)[C@@H](COC(=O)CN)NC(=O)C(Cl)Cl)cc1", "Cat": "active"}

Each compound tested received a call. Report the one for O=P(O)(O)OP(=O)(O)OP(=O)(O)O .
inactive

Each compound tested received a call. Report the one for C[C@@H]1O[C@@H]1P(=O)(O)O .
inactive

Each compound tested received a call. Report the one for CCCCC/C=C\C=C\C(=O)OCC .
active

Each compound tested received a call. Report the one for CCCCCN=C(N)N/N=C/c1c[nH]c2ccc(OC)cc12 .
inactive

Each compound tested received a call. Report the one for O=C(Nc1ccccc1)c1cc(Cl)ccc1O .
active

Each compound tested received a call. Report the one for NC(=O)[C@H]1O[C@@H](O)[C@H](O)[C@@H](O)[C@@H]1O .
inactive

Each compound tested received a call. Report the one for CC1(C)CCC(NC(=O)[C@@H](N)CCC(=O)O)CC1 .
inactive

Each compound tested received a call. Report the one for CN[C@H]1CC[C@@H](c2ccc(Cl)c(Cl)c2)c2ccc(S(N)(=O)=O)cc21 .
active

Each compound tested received a call. Report the one for CN(Cc1ccccc1)Cc1ccccc1 .
inactive

Each compound tested received a call. Report the one for Cc1cccc(C)c1NC(=O)C1CCCCN1C (stereo unspecified) .
inactive

Each compound tested received a call. Report the one for CC(C)OC(=O)Nc1ccc2nc(-c3cscn3)[nH]c2c1 .
active

Each compound tested received a call. Report the one for O=C(O)c1ccc(NC2OC[C@@H](O)[C@H](O)[C@H]2O)cc1 (stereo partly specified) .
inactive

Each compound tested received a call. Report the one for Oc1ccc(Cl)cc1C1CCCC1 .
active

Each compound tested received a call. Report the one for NCCO/C=C/[C@H](N)C(=O)O .
inactive

Each compound tested received a call. Report the one for O=C(O)C[C@H](O)C[C@H](O)/C=C/c1c(C2CC2)nc2ccccc2c1-c1ccc(F)cc1 .
active

Each compound tested received a call. Report the one for NCCCC[C@H](NC(=O)[C@@H]1CCCN1C(=O)[C@@H]1CSSC[C@H](N)C(=O)N[C@@H](Cc2ccc(O)cc2)C(=O)N[C@@H](Cc2ccccc2)C(=O)N[C@@H](CCC(N)=O)C(=O)N[C@@H](CC(N)=O)C(=O)N1)C(=O)NCC(N)=O .
inactive

Each compound tested received a call. Report the one for Nc1c(CC(=O)O)cccc1C(=O)c1ccccc1 .
inactive

Each compound tested received a call. Report the one for C[C@@H]1O[C@@H](OC[C@H]2O[C@@H](Oc3c(-c4ccc(OCCO)c(OCCO)c4)oc4cc(OCCO)cc(O)c4c3=O)[C@H](O)[C@@H](O)[C@@H]2O)[C@H](O)[C@H](O)[C@H]1O .
inactive

Each compound tested received a call. Report the one for CC(C)(C)c1ccc2c(S(=O)(=O)O)c(C(C)(C)C)ccc2c1 .
inactive

====

Assay Notes: qHTS assay to identify small molecule antagonists of the sonic hedgehog signaling (Shh) pathway (AID 1259369); further: nearly all actives have a fitted effect of over 45% in size
Experimental Setup: NIH/3T3 Gli1-Luc reporter, Shh antagonist, luminescence 24 h; series mostly up to 92.4 µM
Results filed as inconclusive are left out. Active and inactive are the calls of the source. Calls follow the shape of the full dose curve.
Thanks in advance; please answer with one of these: active, inactive

{"Compound": "C=COCCCC", "Cat": "inactive"}
{"Compound": "CC1CCC(C(C)(C)O)CC1 (configuration not stated)", "Cat": "inactive"}

Each compound tested received a call. Report the one for CN(C[C@@H](CC[N+]12CCC(C3CCCCC3)(CC1)CC2)c1ccc(Cl)c(Cl)c1)C(=O)c1cc(C(F)(F)F)cc(C(F)(F)F)c1 .
inactive

Each compound tested received a call. Report the one for Cc1cccc2c1ccc1ccccc12 .
inactive

Each compound tested received a call. Report the one for O=c1cc[nH]cc1 .
inactive

Each compound tested received a call. Report the one for O=C1OC2(c3ccccc31)c1ccc(O)c(Br)c1Oc1c2ccc(O)c1Br .
inactive

Each compound tested received a call. Report the one for CCc1cccc(C)c1N(C(=O)CS(=O)(=O)O)C(C)COC (configuration not stated) .
inactive

Each compound tested received a call. Report the one for CCOC=C(C(=O)OCC)C(=O)OCC .
inactive

Each compound tested received a call. Report the one for CC(=O)[C@]1(O)Cc2c(O)c3c(c(O)c2[C@@H](O[C@H]2C[C@H](N)[C@H](O)[C@H](C)O2)C1)C(=O)c1ccccc1C3=O .
active

Each compound tested received a call. Report the one for CCC1(C)C(=O)N(Cl)C(=O)N1Cl (configuration not stated) .
inactive

Each compound tested received a call. Report the one for O=C1Cc2ccccc2C1 .
inactive

Each compound tested received a call. Report the one for COC(=O)c1ccc([N+](=O)[O-])cc1 .
inactive

====

Assay Notes: qHTS assay to identify small molecule agonists of the estrogen related receptor (ERR) signaling pathway (AID 1224820)
Experimental Setup: ERR reporter cell line, luciferase agonist mode; series mostly up to 46.1 µM
Inconclusive results are not listed. Active and inactive are the calls of the source. Calls follow the shape of the dose curve; as a rule, active = well fitted activation curve with a large enough effect in the repeat runs; inconclusive = weak or mixed curves; inactive = no such curve, though single readings can be large or run the other way.
Reported Property: Potency

// below: answered compounds
{"Compound": "N#Cc1cc2nc(O)c(O)nc2cc1[N+](=O)[O-]", "Potency": "inactive"}
{"Compound": "O=c1c(O)c(-c2cc(O)c(O)c(O)c2)oc2cc(O)cc(O)c12", "Potency": "inactive"}
{"Compound": "c1ccc2nc(C3=NCCN3)ccc2c1", "Potency": "inactive"}
{"Compound": "CCN(CC)CCNC(=O)c1ccc(NS(C)(=O)=O)cc1", "Potency": "inactive"}
{"Compound": "CNCCNS(=O)(=O)c1cccc2cnccc12", "Potency": "inactive"}
{"Compound": "CCCCCCCCCCCCCCCCCC(=O)OC(CC(=O)O)C[N+](C)(C)C (stereo unspecified)", "Potency": "inactive"}
{"Compound": "Nc1ncnc2c1ncn2C1CCCO1 (stereo unspecified)", "Potency": "inactive"}
{"Compound": "CCCC(=O)NCCc1c2n(c3ccc(OC)cc13)CCCc1ccccc1-2", "Potency": "inactive"}

Which Potency value is on record for N[C@@H](CS(=O)O)C(=O)O ?
inactive

Which Potency value is on record for CCCCN(CC)c1nc(C)nc2c1c(C)cn2-c1c(C)cc(C)cc1C ?
inactive

Which Potency value is on record for CN(C)C(N)=NCCC[C@H](N)C(=O)O ?
inactive

Which Potency value is on record for CCN1C(=O)C=CC1=O ?
inactive

Which Potency value is on record for O[Si](CCCN1CCCCC1)(c1ccc(F)cc1)C1CCCCC1 (stereo unspecified) ?
inactive

Which Potency value is on record for CO/N=C(\C(=O)N[C@@H]1C(=O)N2C(C(=O)O)=C(COC(C)=O)CS[C@H]12)c1csc(N)n1 (stereo in doubt) ?
inactive

Which Potency value is on record for CC(/C=C/c1cccc(Oc2ccc(F)cc2)c1)N(O)C(N)=O (stereo unspecified) ?
inactive

Which Potency value is on record for CCCC(=O)c1cc(O)c(O)cc1O ?
inactive

Which Potency value is on record for CCc1ccc2c(-c3cccc(Cl)c3)nc(=O)n(CC)c2n1 ?
inactive

Which Potency value is on record for Cc1cc(NC2CCCCC2)nc(-n2nc(C)cc2C)n1 ?
inactive

Which Potency value is on record for CC(=O)N[C@H](C(=O)O)C(C)(C)SN=O ?
inactive

Which Potency value is on record for COc1cccc2c1[C@@H]1CN(CCCCn3c(=O)[nH]c4c(sc5ncc(-c6ccccc6)nc54)c3=O)C[C@@H]1CO2 ?
inactive

Which Potency value is on record for NC1CCN(O)C1=O (stereo unspecified) ?
inactive

Which Potency value is on record for CCCn1c(=O)c(C)cn2nc(N)nc12 ?
inactive

Which Potency value is on record for O=c1[nH]c2ccccc2c2ccccc12 ?
inactive

Which Potency value is on record for NCCCCN ?
inactive

Which Potency value is on record for Nc1c(S(=O)(=O)O)cc(Nc2ccc(Nc3nc(Cl)nc(Nc4ccc(S(=O)(=O)O)cc4)n3)c(S(=O)(=O)O)c2)c2c1C(=O)c1ccccc1C2=O ?
inactive

Which Potency value is on record for Cc1ccccc1/C=C/C1=NCCN1 ?
inactive

Which Potency value is on record for S=c1[nH]c(-c2ccccc2)cn1-c1ccccc1 ?
inactive

Which Potency value is on record for NC1C=CC=C(C(=O)O)C1 (stereo unspecified) ?
inactive
